System: Hepatitis C virus NS3 helicase
Test: HCV NS3 helicase inhibitors, primary screen, biochemical, fluorescence polarization, ChemBridge library (AID 687043)
Settings: NS3h Cy5-dT15 DNA binding, at 100 µM, stronger effect = higher value
Screen size: about 16,000 compounds; about 250 (1.6%) were called active. The full list was thinned out, with actives kept by preference.
quantity-name: inhibition (%)

1) O=C1N=C(N2CCCC2)S/C1=C\c1cccc(Br)c1 ... 9.8
2) COc1ccc2c(Cl)c(C(=O)NCc3ccc4c(c3)OCO4)sc2c1 ... 17
3) CCC1=NN2C(=N)/C(=C/c3cc(Br)c(OCc4ccc(F)cc4)c(OC)c3)C(=O)N=C2S1 ... 10.4
4) COC(=O)c1cc(C(=O)N(Cc2ccccc2)c2ccccn2)cc([N+](=O)[O-])c1 ... 8.4
5) Cc1ccc(N2NC(=O)/C(=C/c3ccc4c(c3)OCO4)C2=O)cc1Cl ... 5.8
6) CCOC(=O)c1ccc(NC(=O)CN(c2cccc([N+](=O)[O-])c2)S(=O)(=O)c2ccccc2)cc1 ... 24.9
7) CCOc1ccc(NC(=O)C2=C(C)NC(=S)NC2c2c(OC)ccc3ccccc23)cc1 (stereo unspecified) ... 6.9
8) CCOc1ccc(C2=C/C(=C/c3ccc(OC)c(OC)c3)C(=O)O2)cc1 ... -0.3
9) Cc1cccc(N(CC(=O)O)S(C)(=O)=O)c1 ... 4.5
10) CCc1c(C)nc2cc(-c3cccs3)[nH]n2c1=O ... -7.2
11) CC(=O)Oc1ccccc1-c1nc2s/c(=C/c3ccco3)c(=O)n2n1 ... 6.7
12) O=c1oc(-c2ccco2)nc2ccc(Cl)cc12 ... -3.4
13) CC(C)(C)N1C(=O)NC(=O)C(=Cc2cccs2)C1=O ... 75.4
14) O=c1[nH][nH]c(=O)c2cc(N3CCCC3)ccc12 ... 4.3
15) CCOC(=O)c1c(CN(CCO)CCO)n(C)c2c1cc(OC(C)=O)c1c2c(-c2ccccc2)nn1-c1ccccc1 ... -6.5
16) Cc1cc(C)cc(N2C(=O)NC(=O)/C(=C\c3ccc(F)cc3)C2=O)c1 ... 21.8
17) C=CCOc1ccccc1C=C1C(=O)NC(=O)NC1=O ... 34.9
18) O=C(CN(c1cccc(Br)c1)S(=O)(=O)c1ccccc1)N1CCOCC1 ... 3.1
19) CCCCCCN1C(=O)C(=O)C(=C(O)c2ccccc2)C1c1ccccc1OC (stereo unspecified) ... 1.4
20) CC(=O)n1nc(C)c2c(-c3ccccc3)c3cc(Br)ccc3nc21 ... 0.3
21) O=C1c2ccc(C(c3ccc4c(c3)C(=O)N(c3ccccc3)C4=O)(C(F)(F)F)C(F)(F)F)cc2C(=O)N1c1ccccc1 ... 8.7

====

Measured inhibition of individual entries
Test system: Hepatitis C virus NS3 helicase
Assay: HCV NS3 helicase inhibitors, primary screen, biochemical, fluorescence polarization, ChemBridge library (AID 687043)
Conditions: NS3h Cy5-dT15 DNA binding, at 100 µM, stronger effect = higher value
Out of some 16,000 compounds screened, about 250 (1.6%) were called active. This is one part of a sample in which actives are shown more often than they occur.
quantity-name: inhibition (%)

1. Cc1nnc(Nc2ccc3c(c2)nc(C)n3Cc2ccccc2)c2ccccc12 ... 2.2
2. N#CC(C#N)=C1CCCc2ccccc2N1 ... -4.1
3. Cc1cc(C)n(C(=O)c2cc(F)c(F)cc2Cl)n1 ... 3.6
4. Cc1cccc(NC(=O)CSc2ncn[nH]2)c1 ... 1.3
5. COc1ccc(N=Cc2sccc2C)c([N+](=O)[O-])c1 ... 4.3
6. CCOC(=O)c1c(-c2ccc(C)cc2C)csc1NC(=S)NC(=O)c1ccccc1 ... 3.9
7. O=c1oc2ccc3ccccc3c2cc1-c1ccc(I)cc1 ... 4.2
8. O=c1c(Cl)c(Cl)cnn1Cc1c(Cl)ccc(Cl)c1Cl ... 5
9. CC(=O)Nc1c(C)cc(C2(c3cc(C)c(NC(C)=O)c(C)c3)CCCCC2)cc1C ... 2.3
10. O=C(Nc1cc(C(F)(F)F)ccc1Cl)C1CC(=O)N(c2ccc(Br)cc2)C1 (stereo not drawn) ... 2.2
11. CCN1C(=O)/C(=C\c2cn(CCOc3ccccc3)c3ccccc23)SC1=S ... 11.7
12. Cc1c(C=O)c(=O)oc2c3c4c(cc12)CCCN4CCC3 ... 1.3
13. COc1ccc(-c2nc3cc(NC(=O)C(C)C)ccc3o2)cc1OC ... -6.3
14. COc1ccc(N2C(=O)C=CC2=O)c([N+](=O)[O-])c1 ... 97.8
15. CS(=O)(=O)N1CCN(C(=O)Cc2ccccc2)CC1 ... 7.7
16. N#Cc1c(N)nc2sc(C(=O)Nc3ccccc3)c(N)c2c1-c1ccco1 ... 65.7
17. O=C(/C=C/c1cc(Br)cs1)Nc1cccc(C(F)(F)F)c1 ... 14.4
18. CCOc1ccccc1NC(=O)CN(c1ccc(OC)cc1)S(=O)(=O)c1ccc(C)cc1 ... 13.8
19. Cc1cc(NC(=O)c2ccc(-c3cccc([N+](=O)[O-])c3)o2)ccc1NC(=O)c1ccco1 ... 14.7
20. Cc1ccc(/C=C/C(=O)Nc2cccc([N+](=O)[O-])c2)o1 ... 6.1
21. O=C(Nc1ccc(Oc2ccccc2)cc1)c1ccco1 ... 12
22. N#Cc1c(SCC(=O)c2ccc(Cl)cc2)nc2c(c1-c1ccco1)CCCC2 ... -2.3
23. COc1ccc(C(=O)CSc2nc(C)cc(C)n2)cc1[N+](=O)[O-] ... 18
